Value source: paper PMC6956158

Assay: In vivo pharmacokinetic study in rats, intravenous DUT without or with intravenous KET
Parameters: species or system rat
Conditions: male, Sprague-Dawley, rat, plasma, iv, 2.5 mg/kg, intravenous DUT 2.5 mg/kg, DUT alone, n = 4
From the text: The animal experiment protocols used in the present study were approved by the Pusan National University-Institutional Animal Care and Use Committee for scientific care and ethical procedures (Busan, Korea; approval date: 01/05/2018; approval number: PNU-2018-1848). Male Sprague–Dawley rats (8-week-old; approximately 250 g) were purchased from DBL Co., Ltd. (Incheon, Korea). […]
value type: half-life (h)

[
  {
    "compound": "C[C@]12C=CC(=O)N[C@@H]1CC[C@@H]1[C@@H]2CC[C@]2(C)[C@@H](C(=O)Nc3cc(C(F)(F)F)ccc3C(F)(F)F)CC[C@@H]12 [DUT, Dutasteride]",
    "value type": "half-life",
    "unit of measurement": "h",
    "reported measurement": 26.8
  }
]

====

Assay: In vivo pharmacokinetic study in rats, intravenous DUT without or with intravenous KET
Set-up: species or system rat
Conditions: male, Sprague-Dawley, rat, plasma, iv, 2.5 mg/kg, intravenous DUT 2.5 mg/kg, DUT alone, n = 4
Excerpt: The animal experiment protocols used in the present study were approved by the Pusan National University-Institutional Animal Care and Use Committee for scientific care and ethical procedures (Busan, Korea; approval date: 01/05/2018; approval number: PNU-2018-1848). Male Sprague–Dawley rats (8-week-old; approximately 250 g) were purchased from DBL Co., Ltd. (Incheon, Korea). […]

[
  {
    "compound": "C[C@]12C=CC(=O)N[C@@H]1[C@H](O)C[C@@H]1[C@@H]2CC[C@]2(C)[C@@H](C(=O)Nc3cc(C(F)(F)F)ccc3C(F)(F)F)CC[C@@H]12 [H-DUT, 6β-hydroxydutasteride]",
    "Cmax": "141 ng/mL"
  }
]

====

Test: In vivo pharmacokinetic study in rats, intravenous DUT without or with intravenous KET
Parameters: species or system rat
Settings: male, Sprague-Dawley, rat, plasma, iv, 2.5 mg/kg, intravenous DUT 2.5 mg/kg, DUT alone, n = 4

[
  {
    "compound": "C[C@]12C=CC(=O)N[C@@H]1CC[C@@H]1[C@@H]2CC[C@]2(C)[C@@H](C(=O)Nc3cc(C(F)(F)F)ccc3C(F)(F)F)CC[C@@H]12 [DUT, Dutasteride]",
    "AUC(0-inf) / ng·h/mL": 19100
  }
]

====

Experiment: In vivo pharmacokinetic study in rats, intravenous DUT without or with intravenous KET
Parameters: species or system rat
Conditions: male, Sprague-Dawley, rat, plasma, iv, 2.5 mg/kg, intravenous DUT 2.5 mg/kg with intravenous KET 20 mg/kg, n = 4, read-out: CL

[
  {
    "molecule": "C[C@]12C=CC(=O)N[C@@H]1CC[C@@H]1[C@@H]2CC[C@]2(C)[C@@H](C(=O)Nc3cc(C(F)(F)F)ccc3C(F)(F)F)CC[C@@H]12 [DUT, Dutasteride]",
    "clearance / mL/min/kg": 1.02
  }
]

====

Assay: NADPH-dependent metabolism (disappearance) of DUT in rat liver microsomes
Format: in vitro ADME
Conditions: rat, rat liver microsomes; RLM, DUT 1 to 100 μM, NADPH
value type: Km (µM)

[
  {
    "compound": "C[C@]12C=CC(=O)N[C@@H]1CC[C@@H]1[C@@H]2CC[C@]2(C)[C@@H](C(=O)Nc3cc(C(F)(F)F)ccc3C(F)(F)F)CC[C@@H]12 [DUT, Dutasteride]",
    "reported measurement": 33.3
  }
]

====

Assay: In vivo pharmacokinetic study in rats, intravenous DUT without or with intravenous KET
Parameters: species or system rat
Details: male, Sprague-Dawley, rat, plasma, iv, 2.5 mg/kg, intravenous DUT 2.5 mg/kg with intravenous KET 20 mg/kg, n = 4, read-out: Vss

[
  {
    "compound": "C[C@]12C=CC(=O)N[C@@H]1CC[C@@H]1[C@@H]2CC[C@]2(C)[C@@H](C(=O)Nc3cc(C(F)(F)F)ccc3C(F)(F)F)CC[C@@H]12 [DUT, Dutasteride]",
    "Vd / L/kg": 4.41
  }
]

====

Test: In vivo pharmacokinetic study in rats, intravenous DUT without or with intravenous KET
Set-up: species or system rat
Settings: male, Sprague-Dawley, rat, plasma, iv, 2.5 mg/kg, intravenous DUT 2.5 mg/kg, DUT alone, n = 4, read-out: Vss
value type: Vd (L/kg)

[
  {
    "molecule": "C[C@]12C=CC(=O)N[C@@H]1CC[C@@H]1[C@@H]2CC[C@]2(C)[C@@H](C(=O)Nc3cc(C(F)(F)F)ccc3C(F)(F)F)CC[C@@H]12 [DUT, Dutasteride]",
    "reported measurement": 4.9
  }
]

====

Experiment: Unbound fraction by rapid equilibrium dialysis, human plasma
Type: in vitro ADME
Details: DUT 5 μM, RED device
value type: fraction unbound at 5 μM

[
  {
    "compound": "C[C@]12C=CC(=O)N[C@@H]1CC[C@@H]1[C@@H]2CC[C@]2(C)[C@@H](C(=O)Nc3cc(C(F)(F)F)ccc3C(F)(F)F)CC[C@@H]12 [DUT, Dutasteride]",
    "reported measurement": 0.0078
  }
]

====

Target: DUT metabolism in HLM
Assay: Inhibition of DUT metabolism by KET in HLM
Conditions: HLM, fu,mic,KET × IC50 / (S/Km + 1), competitive inhibition assumed; read-out: Ki (unbound inhibition constant)

[
  {
    "compound": "CC(=O)N1CCN(c2ccc(OCC3COC(Cn4ccnc4)(c4ccc(Cl)cc4Cl)O3)cc2)CC1 (stereo not shown)",
    "Ki, nM": 48.5
  }
]

====

Experiment: In vivo pharmacokinetic study in rats, oral DUT without or with KET
Parameters: species or system rat
Conditions: male, Sprague-Dawley, rat, plasma sample collected at 30 min after oral DUT 5 mg/kg, representative chromatogram
value type: concentration at 30 min (ng/mL)

[
  {
    "compound": "C[C@]12C=CC(=O)N[C@@H]1CC[C@@H]1[C@@H]2CC[C@]2(C)[C@@H](C(=O)Nc3cc(C(F)(F)F)ccc3C(F)(F)F)CC[C@@H]12 [DUT, Dutasteride]",
    "value type": "concentration at 30 min",
    "reported measurement": 276
  }
]

====

Assay: In vivo pharmacokinetic study in rats, intravenous DUT without or with intravenous KET
Set-up: species or system rat
Details: male, Sprague-Dawley, rat, plasma, iv, 2.5 mg/kg, intravenous DUT 2.5 mg/kg with intravenous KET 20 mg/kg, n = 4

[
  {
    "molecule": "C[C@]12C=CC(=O)N[C@@H]1CC[C@@H]1[C@@H]2CC[C@]2(C)[C@@H](C(=O)Nc3cc(C(F)(F)F)ccc3C(F)(F)F)CC[C@@H]12 [DUT, Dutasteride]",
    "unit of measurement": "ng·h/mL",
    "AUC(0-inf)": 41800
  }
]

====

Assay: In vivo pharmacokinetic study in rats, intravenous DUT without or with intravenous KET
Design: species or system rat
Conditions: male, Sprague-Dawley, rat, plasma, iv, 2.5 mg/kg, intravenous DUT 2.5 mg/kg with intravenous KET 20 mg/kg, n = 4
value type: half-life (h)

[
  {
    "compound": "C[C@]12C=CC(=O)N[C@@H]1CC[C@@H]1[C@@H]2CC[C@]2(C)[C@@H](C(=O)Nc3cc(C(F)(F)F)ccc3C(F)(F)F)CC[C@@H]12 [DUT, Dutasteride]",
    "value type": "half-life",
    "reported measurement": 51
  }
]

====

Assay: Unbound fraction by rapid equilibrium dialysis, RLM
Assay type: in vitro ADME, rat
Details: Sprague-Dawley, rat, rat liver microsomes; RLM 1 mg/mL, DUT 5 μM, RED device

[
  {
    "compound": "C[C@]12C=CC(=O)N[C@@H]1CC[C@@H]1[C@@H]2CC[C@]2(C)[C@@H](C(=O)Nc3cc(C(F)(F)F)ccc3C(F)(F)F)CC[C@@H]12 [DUT, Dutasteride]",
    "fraction unbound at 5 μM": 0.0856
  }
]

====

Experiment: In vivo pharmacokinetic study in rats, intravenous DUT without or with intravenous KET
Design: species or system rat
Settings: male, Sprague-Dawley, rat, plasma, iv, 2.5 mg/kg, intravenous DUT 2.5 mg/kg with intravenous KET 20 mg/kg, n = 4
value type: AUC(0-t) (ng·h/mL)

[
  {
    "compound": "C[C@]12C=CC(=O)N[C@@H]1[C@H](O)C[C@@H]1[C@@H]2CC[C@]2(C)[C@@H](C(=O)Nc3cc(C(F)(F)F)ccc3C(F)(F)F)CC[C@@H]12 [H-DUT, 6β-hydroxydutasteride]",
    "unit of measurement": "ng·h/mL",
    "reported measurement": 1070
  }
]
